Measured values drawn from ChEMBL document CHEMBL1122519 for this set.

# System: Streptococcus mutans
# EXPERIMENT DESCRIPTION: Minimum plaque inhibitory concentration using a standard test organism, Streptococcus mutans OMZ-61
# Assay type: functional, organism-based
METRIC: Concentration

Study these solved cases before continuing.
[[record]]
molecule = "Br.Br.CCCCCCCCCN=c1ccn(CCCCCCCn2ccc(=NCCCCCCCCC)cc2)cc1"
target = "Streptococcus mutans"
val = "0.004%"

[[record]]
molecule = "CS(=O)(=O)O.CS(=O)(=O)O.Clc1ccc(N=c2ccn(CCCCCCCCn3ccc(=Nc4ccc(Cl)cc4)cc3)cc2)cc1"
target = "Streptococcus mutans"
val = "> 1%"

[[record]]
molecule = "Br.Br.CCCCC(CC)CN=c1ccn(CCCCn2ccc(=NCC(CC)CCCC)cc2)cc1 (stereo not given)"
target = "Streptococcus mutans"
val = "> 1%"


Query: Item `Br.Br.N=c1ccn(CCCCCCCCCn2ccc(=N)cc2)cc1` with Streptococcus mutans - Concentration?
Response: > 1%

Query: Item Br.Br.CCCCC(CC)CN=c1ccn(CCCCCCCn2ccc(=NCC(CC)CCCC)cc2)cc1 (stereo not given) with Streptococcus mutans - Concentration?
Response: > 1%

###

Recorded MIC, one value per entry.
# Test system: Escherichia coli
# EXPERIMENT DESCRIPTION: Antimicrobial minimum inhibitory concentration against Escherichia coli 100/B22
# Assay type: functional

Study these solved cases before continuing.
[[record]]
line_notation = "N=C(NCCCCCCNC(=N)NC(=N)Nc1ccc(Cl)cc1)NC(=N)Nc1ccc(Cl)cc1"
metric = "MIC"
val = "1 µg/mL"

[[record]]
line_notation = "CS(=O)(=O)O.CS(=O)(=O)O.Clc1ccc(N=c2ccn(CCCCn3ccc(=Nc4ccc(Cl)cc4)cc3)cc2)cc1"
metric = "MIC"
val = "15.6 µg/mL"

[[record]]
line_notation = "Br.Br.CCCCCCN=c1ccn(CCCCCCCCCCn2ccc(=NCCCCCC)cc2)cc1"
metric = "MIC"
val = "2 µg/mL"

[[record]]
line_notation = "Br.Br.CCCCCCN=c1ccn(CCCCCCCn2ccc(=NCCCCCC)cc2)cc1"
metric = "MIC"
val = "7.8 µg/mL"


// moving on: another record for MIC
Query: Would you mind telling me what MIC value was observed for `Br.Br.CCCCCCCCCCCCN=c1ccn(CCCCCCCCn2ccc(=NCCCCCCCCCCCC)cc2)cc1` ?
Response: > 62.5 µg/mL

###

Recorded Concentration, one value per entry.
# System: Streptococcus mutans
# EXPERIMENT DESCRIPTION: Minimum plaque inhibitory concentration using a standard test organism, Streptococcus mutans OMZ-61
# Type: functional, organism-based
The figure you give is taken to be in %; do not add the unit.

[[record]]
line_notation = "Br.Br.CCCCCCCCCCN=c1ccn(CCCCCCCCCCCCn2ccc(=NCCCCCCCCCC)cc2)cc1"
target = "Streptococcus mutans"
metric = "Concentration"
val = 0.1

[[record]]
line_notation = "Br.Br.CCCCCCCCCCCCN=c1ccn(CCCCCCCCCCn2ccc(=NCCCCCCCCCCCC)cc2)cc1"
target = "Streptococcus mutans"
metric = "Concentration"
val = 0.1

[[record]]
line_notation = "Br.Br.CCCCCCCCCCCCN=c1ccn(CCCCCCCCCn2ccc(=NCCCCCCCCCCCC)cc2)cc1"
target = "Streptococcus mutans"
metric = "Concentration"
val = 0.1


// moving on: another record for Concentration
Query: Would you mind telling me what Concentration value was observed for `CCCCCCCCN=c1ccn(CCCCCCn2ccc(=NCCCCCCCC)cc2)cc1.Cl.Cl` ?
Response: 0.004

###

Recorded Concentration, one value per entry.
# Test system: Actinomyces viscosus
# EXPERIMENT DESCRIPTION: Compound is evaluated for minimal bactericidal concentration against plaque formation for Actinomyces viscosus
# Assay type: functional, organism-based
The figure you give is taken to be in mM; do not add the unit.

Study these solved cases before continuing.
[[record]]
molecule = "Br.Br.CCCCCCCCCN=c1ccn(CCCCCCCCn2ccc(=NCCCCCCCCC)cc2)cc1"
val = 2.5

[[record]]
molecule = "Br.Br.CCCCCCCCCN=c1ccn(CCCCCCCCCn2ccc(=NCCCCCCCCC)cc2)cc1"
val = 1.37

[[record]]
molecule = "CCCCCCCCCN=c1ccn(CCCCCCn2ccc(=NCCCCCCCCC)cc2)cc1.Cl.Cl"
val = 7.3

[[record]]
molecule = "CCCCCCCCN=c1ccn(CCCCCCCCn2ccc(=NCCCCCCCC)cc2)cc1.Cl.Cl"
val = 0.88

[[record]]
molecule = "Br.Br.CCCCCCCCCN=c1ccn(CCCCCCCCCCCCn2ccc(=NCCCCCCCCC)cc2)cc1"
val = 2.6

[[record]]
molecule = "Br.Br.CCCCCCCCN=c1ccn(CCCCCCCCCCCCCCn2ccc(=NCCCCCCCC)cc2)cc1"
val = 2.6

[[record]]
molecule = "Br.Br.CCCCCCCCN=c1ccn(CCCCCCCCCCCCn2ccc(=NCCCCCCCC)cc2)cc1"
val = 1.35

[[record]]
molecule = "Br.Br.CCCCCCCCCN=c1ccn(CCCCCCCCCCn2ccc(=NCCCCCCCCC)cc2)cc1"
val = 2.7

[[record]]
molecule = "Br.Br.CCCCCCCCCN=c1ccn(CCCCCCCn2ccc(=NCCCCCCCCC)cc2)cc1"
val = 7.16

[[record]]
molecule = "CCCCCCN=c1ccn(CCCCCCCCCCCCCCn2ccc(=NCCCCCC)cc2)cc1.Cl.Cl"
val = 2.8


Query: Would you mind telling me what Concentration value was observed for `N=C(NCCCCCCNC(=N)NC(=N)Nc1ccc(Cl)cc1)NC(=N)Nc1ccc(Cl)cc1` ?
Response: 1.6

Query: Would you mind telling me what Concentration value was observed for `CCCCCCCN=c1ccn(CCCCCCCCCCn2ccc(=NCCCCCCC)cc2)cc1.Cl.Cl` ?
Response: 1.46

Query: Would you mind telling me what Concentration value was observed for CCCCCCCCN=c1ccn(CCCCCCCCCCn2ccc(=NCCCCCCCC)cc2)cc1.Cl.Cl [OCTENIDINE HYDROCHLORIDE] ?
Response: 1.6

Query: Would you mind telling me what Concentration value was observed for `CCCCCCCN=c1ccn(CCCCCCCCCCCCn2ccc(=NCCCCCCC)cc2)cc1.Cl.Cl` ?
Response: 2.81

###

# System: Streptococcus mutans
# EXPERIMENT DESCRIPTION: Minimum plaque inhibitory concentration using a standard test organism, Streptococcus mutans OMZ-61
# Assay type: functional, organism-based
Recorded Concentration, one value per entry.

Study these solved cases before continuing.
[[record]]
molecule = "Br.Br.CCCCCCCCCCN=c1ccn(CCCCCCCCCCn2ccc(=NCCCCCCCCCC)cc2)cc1"
val = "0.01%"

[[record]]
molecule = "CS(=O)(=O)O.CS(=O)(=O)O.Clc1ccc(N=c2ccn(CCCCCCn3ccc(=Nc4ccc(Cl)cc4)cc3)cc2)cc1"
val = "> 1%"

[[record]]
molecule = "CS(=O)(=O)O.CS(=O)(=O)O.Clc1ccc(N=c2ccn(CCCCCCCCCCn3ccc(=Nc4ccc(Cl)cc4)cc3)cc2)cc1"
val = "> 1%"

[[record]]
molecule = "CCCCCCCCN=c1ccn(CCCCCCCCn2ccc(=NCCCCCCCC)cc2)cc1.Cl.Cl"
val = "0.005%"

[[record]]
molecule = "CCCCC(CC)CNC(=N)NC(=N)NCCCCCCNC(=N)NC(=N)NCC(CC)CCCC.Cl.Cl (configuration not stated) [ALEXIDINE DIHYDROCHLORIDE]"
val = "0.005%"

[[record]]
molecule = "Br.Br.CCCCCCCCN=c1ccn(CCCCCCCCCCCCCCn2ccc(=NCCCCCCCC)cc2)cc1"
val = "0.005%"


Query: Would you mind telling me what Concentration value was observed for `Br.Br.c1cn(CCCCCCCCCCn2ccc(=NC3CCCCC3)cc2)ccc1=NC1CCCCC1` ?
Response: > 1%

###

Recorded MIC, one value per entry.
# Tested on: Escherichia coli
# EXPERIMENT DESCRIPTION: Antimicrobial minimum inhibitory concentration against Escherichia coli 100/B22
# Format: functional

Study these solved cases before continuing.
[[record]]
compound = "Br.Br.c1cn(CCCCCCn2ccc(=NC3CCCCC3)cc2)ccc1=NC1CCCCC1"
metric = "MIC"
val = "> 125 µg/mL"

[[record]]
compound = "Br.Br.CCCCCCCN=c1ccn(CCCCCn2ccc(=NCCCCCCC)cc2)cc1"
metric = "MIC"
val = "7.8 µg/mL"

[[record]]
compound = "Br.Br.c1cn(CCCCn2ccc(=NC3CCCCC3)cc2)ccc1=NC1CCCCC1"
metric = "MIC"
val = "125 µg/mL"


Query: Would you mind telling me what MIC value was observed for Br.Br.CCCCC(CC)CN=c1ccn(CCCCn2ccc(=NCC(CC)CCCC)cc2)cc1 (centres undefined) ?
Response: 31.3 µg/mL

Query: Would you mind telling me what MIC value was observed for Br.Br.CCCCC(CC)CN=c1ccn(CCCCCCn2ccc(=NCC(CC)CCCC)cc2)cc1 (centres undefined) ?
Response: 3.9 µg/mL

Query: Would you mind telling me what MIC value was observed for Br.Br.CCCCC(CC)CN=c1ccn(CCCCCCCCn2ccc(=NCC(CC)CCCC)cc2)cc1 (centres undefined) ?
Response: 2 µg/mL

Query: Would you mind telling me what MIC value was observed for `CCCCCCCN=c1ccn(CCCCCCCCCCCCCCn2ccc(=NCCCCCCC)cc2)cc1.Cl.Cl` ?
Response: 1 µg/mL

Query: Would you mind telling me what MIC value was observed for `Br.Br.N=c1ccn(CCCCCCCCCCn2ccc(=N)cc2)cc1` ?
Response: 62.5 µg/mL

Query: Would you mind telling me what MIC value was observed for `Br.Br.Clc1ccc(N=c2ccn(CCCCCCCCCn3ccc(=Nc4ccc(Cl)cc4)cc3)cc2)cc1` ?
Response: 2 µg/mL
